Experiment: Tmax in beagle dog at 1 mg/kg, iv and 3 mg/kg, po by LC-MS/MS analysis
Type: ADME, organism-based, Canis lupus familiaris
Settings: in vivo
assay_endpoint: Tmax (min)

COc1cccc(-n2nnc(C3CC3)c2C(=O)N(C)c2ccc(C#N)cc2)c1 = 15

====

Assay: Oral bioavailability in beagle dog at 3 mg/kg by LC-MS/MS analysis
Type: ADME, organism-based, Canis lupus familiaris
Settings: in vivo
assay_endpoint: bioavailability (%)

COc1cccc(-n2nnc(C3CC3)c2C(=O)N(C)c2ccc(C#N)cc2)c1 = 17

====

Experiment: Volume of distribution at steady state in beagle dog at 1 mg/kg, iv and 3 mg/kg, po by LC-MS/MS analysis
Type: ADME, organism-based, Canis lupus familiaris
Conditions: in vivo, read-out: Vdss
assay_endpoint: Vd (L/kg)

COc1cccc(-n2nnc(C3CC3)c2C(=O)N(C)c2ccc(C#N)cc2)c1 = 4.6

====

Test: Half life in beagle dog at 1 mg/kg, iv and 3 mg/kg, po by LC-MS/MS analysis
Assay type: ADME, organism-based, Canis lupus familiaris
Conditions: in vivo
assay_endpoint: half-life (h)

COc1cccc(-n2nnc(C3CC3)c2C(=O)N(C)c2ccc(C#N)cc2)c1 = 4.7

====

Test: Cmax in beagle dog at 1 mg/kg, iv and 3 mg/kg, po by LC-MS/MS analysis
Type: ADME, organism-based, Canis lupus familiaris
Conditions: in vivo
assay_endpoint: Cmax (nM)

COc1cccc(-n2nnc(C3CC3)c2C(=O)N(C)c2ccc(C#N)cc2)c1 = 510
